Tested on: HEK-293T
EXPERIMENT NOTES: Multiplex assay against HEK293T
Assay type: toxicity, cell-based
RUN CONDITIONS: human, 24 h, 1 µM, compound concentration 1 uM, replicate 2
Lab note: compare Population Pyknosed Nuclei (%) against 30%. Equal or greater, write Condition met. Smaller, write Condition not met.

Problem: Is the recorded value of Population Pyknosed Nuclei (%) equal to or greater than 30% for this molecule? CCOC(=O)Nc1cc(-c2ccc(C)c(NS(C)(=O)=O)c2)nn2c(C)nnc12
Solution: Condition not met

Problem: Is Population Pyknosed Nuclei (%) for C[C@]12CC[C@@H]3c4ccc(O)cc4CC[C@H]3[C@@H]1CC[C@@H]2O [ESTRADIOL] at or above 30%?
Solution: Condition met

Problem: Record Cc1cccc(CN2CCN(C(c3ccccc3)c3ccc(Cl)cc3)CC2)c1.Cl.Cl (stereo not drawn) ; criterion: Population Pyknosed Nuclei (%) no lower than 30%. Met?
Solution: Condition not met

Problem: Reported Population Pyknosed Nuclei (%) at or above 30%? COc1cc2ncn(-c3cc(OCc4ccccc4C(F)(F)F)c(C(N)=O)s3)c2cc1OC [GW843682X]
Solution: Condition met

Problem: Dear colleague, could you confirm whether CNC(=O)Nc1ccc(-c2nc(N3CC4CCC(C3)O4)c3cnn(C4CCC5(CC4)OCCO5)c3n2)cc1 has Population Pyknosed Nuclei (%) at or above 30%?
Solution: Condition met

Problem: Given CCCSc1nc(N[C@@H]2C[C@H]2c2ccc(F)c(F)c2)c2nnn([C@@H]3C[C@H](OCCO)[C@@H](O)[C@H]3O)c2n1 [TICAGRELOR] , state whether its Population Pyknosed Nuclei (%) is at least 30%.
Solution: Condition met

Problem: Is Population Pyknosed Nuclei (%) at least 30%? Consider Cl.O=C(O)c1cc(-c2ccc(C3CCNCC3)cc2)c2ccc(-c3ccc(C(F)(F)F)cc3)cc2c1
Solution: Condition not met

Problem: Check this molecule for Population Pyknosed Nuclei (%) at or above 30%: COc1cc(Nc2nccc(-c3cnn4nc(OC)ccc34)n2)cc(C(F)(F)F)c1
Solution: Condition not met

Problem: Assess whether reported Population Pyknosed Nuclei (%) for CNC(=O)Nc1ccc2c(c1)[C@@]1(CC2)OC(=O)N(CC(=O)N(Cc2ccc(F)cc2)[C@@H](C)C(F)(F)F)C1=O [A-486] sits at 30% or higher.
Solution: Condition not met

Problem: Record Cc1ccc(C)c(Oc2ccncc2C(=O)N2CCN(C3CC3)c3ccccc32)c1 ; criterion: Population Pyknosed Nuclei (%) no lower than 30%. Met?
Solution: Condition met

Problem: Does the reported Population Pyknosed Nuclei (%) for C=CC(=O)Nc1cccc(Sc2nc(Nc3ccc(N4CCN(C)CC4)cc3)ncc2Cl)c1 fall at or above the 30% mark?
Solution: Condition not met

Problem: Does CC(C)(C)NC[C@H](O)COc1nsnc1N1CCOCC1 [TIMOLOL] have a reported Population Pyknosed Nuclei (%) of at least 30%?
Solution: Condition not met

Problem: In plain terms: is recorded Population Pyknosed Nuclei (%) at least 30% for CC1=C(C(=O)Nc2cc3cn[nH]c3cc2F)C(c2ccc(C(F)(F)F)cc2)CC(=O)N1 (stereo not drawn) ?
Solution: Condition not met

Problem: Would you say COc1ccc(-c2ccc3ncc4c(c3c2)n(-c2ccc(N3CCNCC3)c(C(F)(F)F)c2)c(=O)n4C)cn1.O=C(O)/C=C\C(=O)O [BGT-226] shows Population Pyknosed Nuclei (%) at minimum 30%?
Solution: Condition met

Problem: Given the entry CC(C)Oc1ccccc1C(=O)Nc1ccccc1C(=O)Nc1cccc(S(=O)(=O)C(F)(F)F)c1 , answer whether its Population Pyknosed Nuclei (%) meets or surpasses 30%.
Solution: Condition met

Problem: Is the recorded value of Population Pyknosed Nuclei (%) equal to or greater than 30% for this molecule? Cc1nc(N2CC[C@H](O)C2)ncc1-c1cc(C(F)(F)F)cc2[nH]ncc12
Solution: Condition not met

Problem: State whether the measured Population Pyknosed Nuclei (%) reaches 30%, counting equality as reaching it, for O=c1cc(N2CCOCC2)oc2c(-c3cccc4c3sc3ccccc34)cccc12
Solution: Condition met

----------
System: HEK-293T
EXPERIMENT NOTES: Multiplex assay against HEK293T
Assay type: toxicity, cell-based
RUN CONDITIONS: human, 24 h, 1 µM, compound concentration 1 uM, replicate 1
Decide using Population Pyknosed Nuclei (%): a value greater than or equal to 40% is yes (1), a smaller one is no (0).

Problem: Quick check, Population Pyknosed Nuclei (%) >= 40%? CNC(=O)Nc1ccc2c(c1)[C@@]1(CC2)OC(=O)N(CC(=O)N(Cc2ccc(F)cc2)[C@@H](C)C(F)(F)F)C1=O
Solution: no (0)

Problem: State whether the measured Population Pyknosed Nuclei (%) reaches 40%, counting equality as reaching it, for COc1ccccc1CN[C@H]1C2CCN(CC2)[C@H]1C(c1ccccc1)c1ccccc1
Solution: yes (1)

Problem: Assess whether reported Population Pyknosed Nuclei (%) for CC(C)(C)NC[C@H](O)COc1nsnc1N1CCOCC1 sits at 40% or higher.
Solution: yes (1)

Problem: Is Population Pyknosed Nuclei (%) for C[C@]12CC[C@@H]3c4ccc(O)cc4CC[C@H]3[C@@H]1CC[C@@H]2O at or above 40%?
Solution: no (0)

Problem: Could you tell me if the measured Population Pyknosed Nuclei (%) of CC(C)c1noc(N2CCC(COc3ccc(-c4ccc(S(C)(=O)=O)cc4)nc3)CC2)n1 reaches 40% or more?
Solution: yes (1)

Problem: Please tell me: is the compound O=C(c1cc2c(cc1F)OC(c1ccc(F)cc1)(c1ccc(Cl)cc1Cl)O2)N1CCOCC1 (stereo not drawn) at or over 40% in terms of Population Pyknosed Nuclei (%)?
Solution: yes (1)

Problem: Reported Population Pyknosed Nuclei (%) at or above 40%? C=CC(=O)Nc1cccc(Oc2nc(Nc3ccc(N4CCN(C)CC4)cc3OC)ncc2Cl)c1
Solution: yes (1)

----------
Tested on: Fibroblast
EXPERIMENT NOTES: Multiplex assay against human fibroblast
Format: toxicity, cell-based
RUN CONDITIONS: 24 h, 1 µM, compound concentration 1 uM, replicate 2
Provide the recorded Population Tubulin-Different-Phenotype (%) for the entries that follow.
Kindly provide the numeric value in % only, without the unit symbol.

Problem: # input compound: O=c1cc(N2CCOCC2)oc2c(-c3cccc4c3sc3ccccc34)cccc12 ; wanted: its Population Tubulin-Different-Phenotype (%)
Solution: 15

Problem: Need Population Tubulin-Different-Phenotype (%) of CC(C)Oc1ccccc1C(=O)Nc1ccccc1C(=O)Nc1cccc(S(=O)(=O)C(F)(F)F)c1 , thanks.
Solution: 35

Problem: Please look up its Population Tubulin-Different-Phenotype (%): CC(C)(C)NC[C@H](O)COc1nsnc1N1CCOCC1 [TIMOLOL]
Solution: 21

Problem: For the compound shown here, Cc1ccc2c(c1)c1c(n2CCc2ccc(C)nc2)CCN(C)C1 [LATREPIRDINE] , give the reported Population Tubulin-Different-Phenotype (%).
Solution: 14

Problem: Recorded Population Tubulin-Different-Phenotype (%) for Cc1nc(N2CC[C@H](O)C2)ncc1-c1cc(C(F)(F)F)cc2[nH]ncc12 , please?
Solution: 23

Problem: Value lookup for Population Tubulin-Different-Phenotype (%); key = COc1ccc(-c2ccc3ncc4c(c3c2)n(-c2ccc(N3CCNCC3)c(C(F)(F)F)c2)c(=O)n4C)cn1.O=C(O)/C=C\C(=O)O [BGT-226]
Solution: 91

Problem: Need Population Tubulin-Different-Phenotype (%) of Cc1cccc(CN2CCN(C(c3ccccc3)c3ccc(Cl)cc3)CC2)c1.Cl.Cl (centres undefined) , thanks.
Solution: 22

Problem: Report Population Tubulin-Different-Phenotype (%) for COC(=O)C1=C(C)NC(C)=C(C(=O)OCCCN2CCC(c3ccccc3)(c3ccccc3)CC2)[C@H]1c1cccc([N+](=O)[O-])c1 [NIGULDIPINE] please.
Solution: 100

Problem: Sample CCCSc1nc(N[C@@H]2C[C@H]2c2ccc(F)c(F)c2)c2nnn([C@@H]3C[C@H](OCCO)[C@@H](O)[C@H]3O)c2n1 [TICAGRELOR] — what was its Population Tubulin-Different-Phenotype (%)?
Solution: 11

----------
Give Population Fragmented Nuclei (%) for every item shown.
System: HEK-293T
EXPERIMENT NOTES: Multiplex assay against HEK293T
Format: toxicity, cell-based
RUN CONDITIONS: human, 48 h, 1 µM, compound concentration 1 uM, replicate 1
State just the number; it will be interpreted in %.

Problem: I would be grateful if you could share the reported Population Fragmented Nuclei (%) for CC(C)Oc1ccccc1C(=O)Nc1ccccc1C(=O)Nc1cccc(S(=O)(=O)C(F)(F)F)c1 .
Solution: 19

Problem: Given O=c1cc(N2CCOCC2)oc2c(-c3cccc4c3sc3ccccc34)cccc12 , state its recorded Population Fragmented Nuclei (%).
Solution: 17

Problem: Would you kindly share the measured Population Fragmented Nuclei (%) for Cl.O=C(O)c1cc(-c2ccc(C3CCNCC3)cc2)c2ccc(-c3ccc(C(F)(F)F)cc3)cc2c1 ?
Solution: 25

Problem: I would be grateful if you could share the reported Population Fragmented Nuclei (%) for C[C@]12CC[C@@H]3c4ccc(O)cc4CC[C@H]3[C@@H]1CC[C@@H]2O [ESTRADIOL] .
Solution: 15

Problem: Suppose we examine the compound CCc1nn(CCCN2CCN(c3cccc(Cl)c3)CC2)c(=O)n1CCOc1ccccc1.Cl [NEFAZODONE HYDROCHLORIDE] ; what Population Fragmented Nuclei (%) value has been reported?
Solution: 7

Problem: Population Fragmented Nuclei (%) for CNC(=O)Nc1ccc(-c2nc(N3CC4CCC(C3)O4)c3cnn(C4CCC5(CC4)OCCO5)c3n2)cc1 ?
Solution: 46

Problem: Name the reported Population Fragmented Nuclei (%) value associated with the compound CC(C)c1noc(N2CCC(COc3ccc(-c4ccc(S(C)(=O)=O)cc4)nc3)CC2)n1 [GSK-1292263]
Solution: 16

Problem: Item COc1cc(Nc2nccc(-c3cnn4nc(OC)ccc34)n2)cc(C(F)(F)F)c1 has what recorded Population Fragmented Nuclei (%)?
Solution: 18

Problem: Return reported Population Fragmented Nuclei (%); argument: Cc1c[nH]c2nccc(Oc3c(F)cc(Nc4cc(Cl)nc(N)n4)cc3F)c12 [BAY-549]
Solution: 29

Problem: If you can, please state the reported Population Fragmented Nuclei (%) value of CC(C)NC(=O)N1CC[C@H](NC2=Nc3cc(F)ccc3N(CC(F)F)c3ccc(Cl)cc32)C1 .
Solution: 22

Problem: What value of Population Fragmented Nuclei (%) has been recorded for this entry: CC1=C(C(=O)Nc2cc3cn[nH]c3cc2F)C(c2ccc(C(F)(F)F)cc2)CC(=O)N1 (configuration not stated)
Solution: 18

Problem: Please report the recorded Population Fragmented Nuclei (%) for COc1cc2ncn(-c3cc(OCc4ccccc4C(F)(F)F)c(C(N)=O)s3)c2cc1OC [GW843682X] .
Solution: 17

Problem: # input compound: CN1CCN(Cc2ccc(Nc3ncc(Cl)c(Nc4ccccc4S(=O)(=O)N(C)C)n3)cc2)CC1 [DUBERMATINIB] ; wanted: its Population Fragmented Nuclei (%)
Solution: 26

Problem: Item under review: COc1ccc(-c2ccc3ncc4c(c3c2)n(-c2ccc(N3CCNCC3)c(C(F)(F)F)c2)c(=O)n4C)cn1.O=C(O)/C=C\C(=O)O [BGT-226] . Reported Population Fragmented Nuclei (%)?
Solution: 38

Problem: Would you mind telling me what Population Fragmented Nuclei (%) value was observed for Cc1ccc2c(c1)c1c(n2CCc2ccc(C)nc2)CCN(C)C1 [LATREPIRDINE] ?
Solution: 11

Problem: Give the measured Population Fragmented Nuclei (%) of CC(C)(C)NC[C@H](O)COc1nsnc1N1CCOCC1 [TIMOLOL] .
Solution: 18

Problem: Look up Population Fragmented Nuclei (%): COC(=O)C1=C(C)NC(C)=C(C(=O)OCCCN2CCC(c3ccccc3)(c3ccccc3)CC2)[C@H]1c1cccc([N+](=O)[O-])c1 [NIGULDIPINE]
Solution: 9
